The origin of these recorded values is patent US20260232732A1.

Tested system: T1, biotin-peptide SESTSSMEDY (human)
T1 peptide: Biotin-SESTSSMEDY
Experiment description: ELISA biotin-peptide; scFv 10 ug/mL; repII
Where no end group is shown, it is not given here. The star is where a group is joined. Biotin = O=C1N[C@H]2[C@H](CS[C@H]2CCCCC(=O)*)N1
Assay metric: OD450
Could you give the number and then its unit, please?

OD450 reading for Comparative antibody 3 (Comp-3) scFv, SR_92R (Somovilla-Crespo et al. 2018), His-tagged (scFv) scFv: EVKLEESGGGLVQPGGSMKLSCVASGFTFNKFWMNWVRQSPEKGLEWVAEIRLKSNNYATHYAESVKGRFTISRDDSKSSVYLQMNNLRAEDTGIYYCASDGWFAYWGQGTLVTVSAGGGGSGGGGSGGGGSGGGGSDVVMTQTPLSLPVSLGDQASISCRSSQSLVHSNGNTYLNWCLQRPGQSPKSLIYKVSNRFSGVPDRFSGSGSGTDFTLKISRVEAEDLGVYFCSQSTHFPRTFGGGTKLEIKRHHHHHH : 0.12 OD
